- systemTested: N-terminally truncated recombinant hDHODH enzyme (Homo sapiens)
- Construct: using an N-terminally truncated recombinant hDHODH enzyme as described
- Sequence (Q02127 29-395 limits assumed): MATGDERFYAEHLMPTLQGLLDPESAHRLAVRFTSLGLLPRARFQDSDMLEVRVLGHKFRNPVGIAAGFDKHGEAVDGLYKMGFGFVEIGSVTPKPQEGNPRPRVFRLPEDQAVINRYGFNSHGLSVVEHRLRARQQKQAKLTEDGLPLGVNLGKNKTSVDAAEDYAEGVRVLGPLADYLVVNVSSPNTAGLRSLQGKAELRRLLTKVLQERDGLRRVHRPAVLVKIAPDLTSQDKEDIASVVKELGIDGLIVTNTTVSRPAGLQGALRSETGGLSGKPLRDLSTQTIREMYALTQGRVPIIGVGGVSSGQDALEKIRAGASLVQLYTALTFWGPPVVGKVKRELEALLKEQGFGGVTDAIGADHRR
- testSummary: In vitro inhibition of human DHODH
measuredEndpoint: IC50

Data request: Would you mind telling me what IC50 value was observed for `COC(=O)c1c(-c2c(F)cccc2Cl)noc1-c1cnn(-c2cccc(Cl)c2)c1C(F)(F)F` ?
Data returned: 41 nM

###

- testSummary: in vitro
- measurementConditions: African green monkey, CC50 values on Vero cells
measuredEndpoint: CC50 at 3 days

Data request: Would you mind telling me what CC50 at 3 days value was observed for `COC(=O)c1c(-c2c(F)cccc2Cl)noc1-c1cnn(-c2cccc(Cl)c2)c1C(F)(F)F` ?
Data returned: > 100 µM

###

- System: human PBMCs
- testSummary: Cytotoxicity in PBMC (MTS)
measuredEndpoint: CC50

Data request: Would you mind telling me what CC50 value was observed for `Cc1cn([C@H]2C[C@H](N=[N+]=[N-])[C@@H](CO)O2)c(=O)[nH]c1=O` ?
Data returned: > 1000 nM

###

- testSummary: in vitro
- measurementConditions: African green monkey, CC50
Structures can show the parent of a compound that is named as a salt.
measuredEndpoint: CC50 (µM)
// note: answer is a bare numeric in µM

Data request: Would you mind telling me what CC50 value was observed for COc1cccc(-c2ccc(NC(=O)C3=C(C(=O)O)CCC3)c(F)c2)c1 [IMU-838, calcium salt of vidofludimus] ?
Data returned: 88.1

###

- testSummary: in vitro
- Format: cell-based
- measurementConditions: African green monkey
Counter-ions that a name gives are not always drawn.
measuredEndpoint: CC90

Data request: Would you mind telling me what CC90 value was observed for COc1cccc(-c2ccc(NC(=O)C3=C(C(=O)O)CCC3)c(F)c2)c1 [IMU-838, calcium salt of vidofludimus] ?
Data returned: > 100 µM

###

- testSummary: Neutral Red assay (NRA) cytotoxicity
- measurementConditions: African green monkey
measuredEndpoint: CC50

Data request: Would you mind telling me what CC50 value was observed for `CCC(CC)COC(=O)[C@H](C)N[P@](=O)(OC[C@H]1O[C@@](C#N)(c2ccc3c(N)ncnn23)[C@H](O)[C@@H]1O)Oc1ccccc1` ?
Data returned: > 100 µM

###

- testSummary: in vitro
- Format: cell-based
- measurementConditions: human
Structures can show the parent of a compound that is named as a salt.
measuredEndpoint: CC50

Data request: Would you mind telling me what CC50 value was observed for COc1cccc(-c2ccc(NC(=O)C3=C(C(=O)O)CCC3)c(F)c2)c1 [IMU-838, calcium salt of vidofludimus] ?
Data returned: > 60 µM

###

- testSummary: in vitro
- measurementConditions: African green monkey
measuredEndpoint: CC50

Data request: Would you mind telling me what CC50 value was observed for CCN(CC)CCCC(C)Nc1ccnc2cc(Cl)ccc12 (centres unmarked) [CQ, chloroquine, reference compound] ?
Data returned: > 20 µM

Data request: And what about the molecule `CCC(CC)COC(=O)[C@H](C)N[P@](=O)(OC[C@H]1O[C@@](C#N)(c2ccc3c(N)ncnn23)[C@H](O)[C@@H]1O)Oc1ccccc1` ?
Data returned: > 20 µM

###

- testSummary: in vitro
- measurementConditions: African green monkey
Where a name gives a salt, the structure may show the parent alone.
measuredEndpoint: viability at 3 days, 100 µM
Provide a numeric answer, followed by its unit.

Data request: Would you mind telling me what viability at 3 days, 100 µM value was observed for COc1cccc(-c2ccc(NC(=O)C3=C(C(=O)O)CCC3)c(F)c2)c1 [IMU-838, calcium salt of vidofludimus] ?
Data returned: 95%
